Cited source: paper PMC4072508

system: T1, Bcl-2 (human, UniProt P10415 1-239)
T1 construct: human Bcl-2; The c-Myc tag is told for the SPOT arrays; also called c-Myc-tagged receptor; prosurvival protein
T1 sequence (P10415 whole entry): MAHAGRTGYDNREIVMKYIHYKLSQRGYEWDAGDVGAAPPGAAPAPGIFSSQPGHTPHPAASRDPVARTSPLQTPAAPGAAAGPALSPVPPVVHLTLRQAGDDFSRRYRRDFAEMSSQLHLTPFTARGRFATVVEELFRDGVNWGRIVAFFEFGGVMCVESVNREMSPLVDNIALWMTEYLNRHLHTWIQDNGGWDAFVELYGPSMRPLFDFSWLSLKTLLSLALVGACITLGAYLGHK
measurement_notes: fluorescence polarisation; direct binding: 10 nM FAM-labeled peptide, receptor serially diluted; 25°C; 20 mM NaPO4, 50 mM NaCl, 1 mM EDTA, 0.001% Triton X, pH 7.8; single-site binding model
assay_context: both partners purified
pKd: −log10 of the molar value. FAM = fluorescein group
Each entry below lists one item and its recorded pKd value.
quantity_name: pKd

[[record]]
binder = "{FAM}-IIQMIVELLKRVGDQWEEEQSLA-NH2 [c6orf222 BH3-like peptide]"
relation_symbol = ">"
value_measured = 7.52

[[record]]
binder = "{FAM}-PFKAWGKFGGAFCRYADEMKEIQERQ-NH2 [PURB BH3-like peptide]"
relation_symbol = "="
value_measured = 7.40

